Hello, the source for this data is patent US8772250B2, in case you need it.

assay name: Pharmacokinetic evaluation in humans
Assay type: in vivo
study conditions: human, plasma, 150 mg, noncompartmental, read-out: t1/2, Median (converted)
measured attribute: half-life
Reply with the number, then its unit.

The recorded half-life for entry C[C@H](NC(=O)[C@H](CCC(=O)O)NC(=O)CCCC[C@@H]1CCSS1)C(=O)O [RLip-EA-OH, N-(R)-lipoyl-L-glutamyl-L- alanine] equals 1.25 h

====

assay name: Pharmacokinetic evaluation in humans
Type: in vivo
study conditions: human, plasma, read-out: volume of distribution of the central compartment (Vc)
measured attribute: Vd

The recorded Vd for entry C[C@H](NC(=O)[C@H](CCC(=O)O)NC(=O)CCCC[C@@H]1CCSS1)C(=O)O [RLip-EA-OH, N-(R)-lipoyl-L-glutamyl-L- alanine] equals ~6 L
